Tested on: ATP;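 also: ATP exposure 15 min at 22 °C before imaging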
assay info: switch fluorescence ratio, 500 uM ATP over buffer (Cy3 cluster intensity, sum of 5 cycles each) (fold (ratio)); higher = stronger signal-on switching upon ATP binding; sequences stand for … in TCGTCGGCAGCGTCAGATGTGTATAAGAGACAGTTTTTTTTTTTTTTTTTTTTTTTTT…TC
test settings: aptamer strand: ATP DNA aptamer (quencher-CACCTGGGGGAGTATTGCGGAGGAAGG + anchor), 100 nM annealed; ATP concentration: 500 uM
# if value of switch fluorescence ratio reaches 1, tag t; if it stays below, tag f

Some entries whose results are on file:
TATTGCTCAC: t
CGTACAGGGG: t
GAGTAACTGT: f
CGTTCTTGTC: t
GCATTAAAGT: f
TTTAATGCCG: f

I'd appreciate it if you could say whether ATCGTGTTTG has switch fluorescence ratio at least equal to 1.
f

Please indicate if the recorded switch fluorescence ratio for AAAAAGTGCC meets or exceeds 1.
t

switch fluorescence ratio >= 1 for CATACAATTG ?
t

Quick check, switch fluorescence ratio >= 1? CCGGACTTGG
f

Quick check, switch fluorescence ratio >= 1? GTTGGAGGTG
t
